Give measured Plant response rating, Wheat for each item. Keep answers brief.
Tested on: wheat (Triticum aestivum)
ASSAY_SUMMARY: Test A preemergence, wheat
Assay type: in vivo
EXPERIMENTAL_CONTEXT: 500 g ai/ha, 0 to 100 scale (0 no effect, 100 complete control)
Description: Seeds of barnyardgrass (Echinochloa crus-galli), large crabgrass (Digitaria sanguinalis), giant foxtail (Setaria faberi), morningglory (Ipomoea spp.), pigweed (Amaranthus retroflexus), velvetleaf (Abutilon theophrasti), wheat (Triticum aestivum), and corn (Zea mays) were planted into a blend of loam soil and sand and treated preemergence with a directed soil spray using test chemicals formulated in a non-phytotoxic solvent mixture which included a surfactant. […]
One number for each entry.

- COMPOUND: "CC1(C)CC([S+]([O-])Cc2c(C(F)(F)C(F)(F)F)nc3n(c2=O)CCC3)=NO1 (centres unmarked) [Compound 27]"
  TARGET_OR_SYSTEM: "wheat (Triticum aestivum)"
  Plant response rating, Wheat: 50

Your task in this section: give Plant response rating, Wheat for each listed record.
1. Cc1cc2nc(C(F)(F)F)c(C[S+]([O-])C3=NOC(C)(C)C3)c(=O)n2o1 (centres unmarked) [Compound 50]
2. CC1(C)CC([S+]([O-])Cc2c(C(F)(F)Cl)nc3n(c2=O)CCCC3)=NO1 (centres unmarked) [Compound 32]
3. CC1(C)CC([S+]([O-])Cc2c(C(F)(F)F)nc3cnccn3c2=O)=NO1 (centres unmarked) [Compound 54]
4. CC1(C)CC([S+]([O-])Cc2c(C(F)(F)F)nc3cccnn3c2=O)=NO1 (centres unmarked) [Compound 46]
5. CC1(C)CC(S(=O)(=O)Cc2c(C(F)(F)F)nc3cccnn3c2=O)=NO1 [Compound 45]
6. CC1(C)CC(S(=O)(=O)Cc2c(C(F)(F)F)nc3ccccn3c2=O)=NO1 [Compound 7]
7. CC1(C)CC(S(=O)(=O)Cc2c(C(F)(F)F)nc3cnccn3c2=O)=NO1 [Compound 52]

Data returned:
0
0
0
0
10
10
0
